Tested on: Poliovirus 1
assay.procedure: Antiviral activity against Human poliovirus 1 strain Sabin infected in Vero 76 cells after 2 days by crystal violet staining based plaque reduction assay
Type: functional, organism-based
condition.notes: Enterovirus C, Vero 76, 48 h
measurement.kind: pEC50
Answer as the number alone; pEC50 is minus log10 of concentration in mol/L.

Take a look at these entries with their results.
What pEC50 value was documented for this molecule, COc1ccc(-c2nc3cc4cccnc4c(Cl)c3[nH]2)c(OC)c1 ?
4.39

What pEC50 value was documented for this molecule, NS(=O)(=O)c1ccc(-c2nc3cc4cccnc4c(Cl)c3[nH]2)cc1 ?
4.68

What pEC50 value was documented for this molecule, FC(F)(F)c1ccc(-c2nc3cc4cccnc4cc3[nH]2)cc1 ?
4.17

Proceed to the following item.
What pEC50 value was documented for this molecule, COc1ccc(-c2nc3cc4cccnc4cc3[nH]2)c(OC)c1 ?
4.80

* * *

Test system: Respiratory syncytial virus
assay.procedure: Antiviral activity against Respiratory syncytial virus A2 infected in Vero 76 cells after 5 days by crystal violet staining based plaque reduction assay
Type: functional, organism-based
condition.notes: human respiratory syncytial virus, A2, Vero 76, 120 h
pEC50: −log10 of the molar value.
Parameter: pEC50. Scope: all listed entries.

Could you share what pEC50 was measured for N#Cc1ccc(-c2nc3cc4cccnc4cc3[nH]2)cc1 , tested on Respiratory syncytial virus?
< 4.80

Next:
Could you share what pEC50 was measured for COc1ccc(-c2nc3cc4cccnc4cc3[nH]2)c(OC)c1 , tested on Respiratory syncytial virus?
< 4.35

Could you share what pEC50 was measured for FC(F)(F)c1ccc(-c2nc3cc4cccnc4c(Cl)c3[nH]2)cc1 , tested on Respiratory syncytial virus?
< 4.00

Could you share what pEC50 was measured for NS(=O)(=O)c1ccc(-c2nc3cc4cccnc4c(Cl)c3[nH]2)cc1 , tested on Respiratory syncytial virus?
4.74

Could you share what pEC50 was measured for CC(=O)c1ccc(-c2nc3cc4cccnc4c(Cl)c3[nH]2)cc1 , tested on Respiratory syncytial virus?
< 4.00

Could you share what pEC50 was measured for FC(F)(F)c1ccc(-c2nc3cc4cccnc4cc3[nH]2)cc1 , tested on Respiratory syncytial virus?
< 4.00

Could you share what pEC50 was measured for O=[N+]([O-])c1ccc(-c2nc3cc4cccnc4c(Cl)c3n2CC2CCCCC2)cc1 , tested on Respiratory syncytial virus?
< 4.70

Could you share what pEC50 was measured for CSc1ccc(-c2nc3cc4cccnc4c(Cl)c3[nH]2)cc1 , tested on Respiratory syncytial virus?
< 4.00

Could you share what pEC50 was measured for Fc1ccc(-c2nc3cc4cccnc4cc3[nH]2)c(F)c1 , tested on Respiratory syncytial virus?
< 4.24

Could you share what pEC50 was measured for COc1ccc(-c2nc3cc4cccnc4c(Cl)c3[nH]2)c(OC)c1 , tested on Respiratory syncytial virus?
5.00

* * *

assay.procedure: Inhibition of His tagged BVDV NS5B Cdelta24 RNA dependent RNA polymerase expressed in Escherichia coli Rosetta DE3 preincubated for 30 mins followed by addition of GTP measured after 120 mins by fluorescence analysis
Set-up: species or system Bovine viral diarrhea virus 1
Parameter: pIC50. Scope: all listed entries.
Answer as the number alone; pIC50 is minus log10 of concentration in mol/L.

What pIC50 value was documented for this compound, O=[N+]([O-])c1c2cccnc2c(Cl)c2[nH]nnc12 ?
5.05

What pIC50 value was documented for this compound, CC(=O)c1ccc(-c2nc3ccncc3[nH]2)cc1 ?
4.96

What pIC50 value was documented for this compound, COc1nc2cc3cccnc3c(Cl)c2nc1-c1cccs1 ?
6.19

What pIC50 value was documented for this compound, Nc1c(/N=C/c2ccc([N+](=O)[O-])cc2)cc2cccnc2c1Cl ?
6.09

Proceed to the following item.
What pIC50 value was documented for this compound, N#Cc1ccc(-c2nc3cc4cccnc4c(Cl)c3[nH]2)cc1 ?
6.32
